Experiment: ex-vivo olfactory evaluation test on incubated sweat
Conditions: Table 5; 0.5% in incubated sweat; scale 0 to 10
READOUT: Residual unpleasant odor
// keep it numeric: no unit symbol after the value

Please review the entries below; each comes with its answer.
{"columns": ["COMPOUND", "VALUE"],
 "data": [
  ["CCCCCCCCOC(=O)[C@@H](N)Cc1c[nH]c2ccccc12.Cl [Compound 6, Tryptophan octyl ester hydrochloride]", 0.3],
  ["N[C@@H](Cc1c[nH]c2ccccc12)C(=O)OCc1ccccc1", 3],
  ["CC(C)(C)OC(=O)[C@@H](N)Cc1c[nH]c2ccccc12.Cl", 1.7]
]}

Next compound, Residual unpleasant odor to be filled in.
Inquiry: Entry CCOC(=O)[C@@H](N)Cc1c[nH]c2ccccc12.Cl [Compound 1, L-tryptophan ethyl ester chlorhydride] : reported Residual unpleasant odor = ?
Reply text: 1.3
